Item-by-item account of The decomposed amount (%)
Experiment: Stability test under oxidation condition
Type: physicochemical
Conditions: closed container with hydrogen peroxide urea, 40° C., 12 days, chiral HPLC vs day 0
Description: The stability test was conducted on 10 mg of each of the free base and salts of the morpholine derivative in the examples under oxidation condition.
Counter-ions that a name gives are not always drawn.
I'd appreciate it if you wrote the number followed by its unit.

| Compound | The decomposed amount (%) |
| --- | --- |
| COC(=O)NCCCn1nc([C@@H](C)N(C(=O)[C@H]2CNCCO2)C2CC2)c2ccc(C)nc21 [morpholine derivative free base, reference compound] | 38.0% |
| COC(=O)NCCCn1nc([C@@H](C)N(C(=O)[C@H]2CNCCO2)C2CC2)c2ccc(C)nc21 [morpholine derivative acetate] | 95.71% |
| COC(=O)NCCCn1nc([C@@H](C)N(C(=O)[C@H]2CNCCO2)C2CC2)c2ccc(C)nc21 [morpholine derivative tartrate crystal form A] | 17.93% |
| COC(=O)NCCCn1nc([C@@H](C)N(C(=O)[C@H]2CNCCO2)C2CC2)c2ccc(C)nc21 [morpholine derivative malate] | 8.46% |
| COC(=O)NCCCn1nc([C@@H](C)N(C(=O)[C@H]2CNCCO2)C2CC2)c2ccc(C)nc21 [morpholine derivative hydrochloride] | 63.53% |
| COC(=O)NCCCn1nc([C@@H](C)N(C(=O)[C@H]2CNCCO2)C2CC2)c2ccc(C)nc21 [morpholine derivative tartrate crystal form B] | 3.24% |

The record that follows has no The decomposed amount (%) shown yet.
Ask: Which The decomposed amount (%) value belongs to COC(=O)NCCCn1nc([C@@H](C)N(C(=O)[C@H]2CNCCO2)C2CC2)c2ccc(C)nc21 [morpholine derivative naphthalene disulfonate] ?
Reply: 51.47%

---

Assay: Stability test under oxidation condition
Format: physicochemical
Conditions: closed container with hydrogen peroxide urea, 40° C., 12 days
Where a name gives a salt, the structure may show the parent alone.
Assay endpoint: Types of new impurities (type)
Give the value in type but do not write type after it.

Sample answers from the record:
| Compound | Types of new impurities (type) |
| --- | --- |
| COC(=O)NCCCn1nc([C@@H](C)N(C(=O)[C@H]2CNCCO2)C2CC2)c2ccc(C)nc21 [morpholine derivative free base, reference compound] | 6 |
| COC(=O)NCCCn1nc([C@@H](C)N(C(=O)[C@H]2CNCCO2)C2CC2)c2ccc(C)nc21 [morpholine derivative naphthalene disulfonate] | 7 |
| COC(=O)NCCCn1nc([C@@H](C)N(C(=O)[C@H]2CNCCO2)C2CC2)c2ccc(C)nc21 [morpholine derivative tartrate crystal form A] | 6 |

Ask: What value of Types of new impurities (type) has been recorded for this entry: COC(=O)NCCCn1nc([C@@H](C)N(C(=O)[C@H]2CNCCO2)C2CC2)c2ccc(C)nc21 [morpholine derivative tartrate crystal form B]
Reply: 4

Ask: Now consider COC(=O)NCCCn1nc([C@@H](C)N(C(=O)[C@H]2CNCCO2)C2CC2)c2ccc(C)nc21 [morpholine derivative hydrochloride] and answer again.
Reply: 6

Ask: Please do the same for COC(=O)NCCCn1nc([C@@H](C)N(C(=O)[C@H]2CNCCO2)C2CC2)c2ccc(C)nc21 [morpholine derivative acetate] as well.
Reply: 5

Ask: Likewise for COC(=O)NCCCn1nc([C@@H](C)N(C(=O)[C@H]2CNCCO2)C2CC2)c2ccc(C)nc21 [morpholine derivative malate] ?
Reply: 2
